Record: IC50 reported on PIM-2 (Homo sapiens (Human)).
measurement kind: IC50

{"compound": "CN1CCOc2c(N(C)C3CCNCC3)nn3c(-c4cccc(OC(F)(F)F)c4)nnc3c21", "measurement kind": "IC50", "result": "> 1000 nM"}
{"compound": "CN1CCOc2c(N3CCC(CN)CC3)nn3c(-c4cccc(OC(F)(F)F)c4)nnc3c21", "measurement kind": "IC50", "result": "> 1000 nM"}
{"compound": "CN1CCOc2c1c(N1CCCC3(CCCN3)CC1)nn1c(-c3cccc(OC(F)(F)F)c3)nnc21 (stereo not shown)", "measurement kind": "IC50", "result": "100 to 1000 nM"}
{"compound": "CC1CN(C)c2c(NCC3CCN(C)CC3)nn3c(-c4cccc(OC(F)(F)F)c4)nnc3c2O1 (stereo not shown)", "measurement kind": "IC50", "result": "100 to 1000 nM"}
{"compound": "COc1ccc(-c2nnc3c4c(c(N5CCC(CNC(C)=O)CC5)nn23)N(C)CCO4)cc1", "measurement kind": "IC50", "result": "> 1000 nM"}
{"compound": "COc1ccc(-c2nnc3c4c(c(N5CCC(CN)CC5)nn23)N(C)CCO4)cc1", "measurement kind": "IC50", "result": "> 1000 nM"}
{"compound": "FC(F)(F)Oc1cccc(-c2nnc3c4c(c(N5CCCCC5)nn23)OCCO4)c1", "measurement kind": "IC50", "result": "100 to 1000 nM"}
{"compound": "COc1ccc(CNc2nn3c(-c4cccc(OC(F)(F)F)c4)nnc3c3c2N(C)CCO3)cc1OC", "measurement kind": "IC50", "result": "> 1000 nM"}
{"compound": "CN1CCOc2c(N[C@H]3CC[C@H](O)CC3)nn3c(-c4cccc(OC(F)(F)F)c4)nnc3c21", "measurement kind": "IC50", "result": "> 1000 nM"}
{"compound": "CN1CCC(CN(C)c2nn3c(-c4cccc(OC(F)(F)F)c4)nnc3c3c2OCCN3C)CC1", "measurement kind": "IC50", "result": "> 1000 nM"}

###

- Tested on: Bad S112 phosphorylation in H1299 cells overexpressing Pim1 (H1299Pim1)
- assay summary: Bad S112 phosphorylation inhibition assay (In Cell ELISA)
- Assay type: cell-based
- stated conditions: Homo sapiens, NCI-H1299, semi-quantitative, read-out: EC50 BadP ELISA H1299 Pim1
Quick reference: EC50 of the listed items.
measurement kind: EC50

{"compound": "CN1CCOc2c1c(N1CCCC3(CCCN3)CC1)nn1c(-c3cccc(OC(F)(F)F)c3)nnc21 (centres unmarked)", "measurement kind": "EC50", "result": "< 250 nM"}
{"compound": "CC(C)NCC1CCN(c2nn3c(-c4cccc(OC(F)(F)F)c4)nnc3c3c2OCCN3C)CC1", "measurement kind": "EC50", "result": "1000 to 10000 nM"}
{"compound": "CN1CCOc2c(NC3CC4(CCNCC4)C3)nn3c(-c4cccc(OC(F)(F)F)c4)nnc3c21", "measurement kind": "EC50", "result": "1000 to 10000 nM"}
{"compound": "CN1CCC(Nc2nn3c(-c4cccc(OC(F)(F)F)c4)nnc3c3c2N(C)CCO3)CC1", "measurement kind": "EC50", "result": "250 to 1000 nM"}
{"compound": "COc1ccc(-c2nnc3c4c(c(NCc5ccc(F)cc5)nn23)N(C)CCO4)cc1", "measurement kind": "EC50", "result": "1000 to 10000 nM"}
{"compound": "CNC1CCN(c2nn3c(-c4cccc(OC(F)(F)F)c4)nnc3c3c2N(C)CCO3)CC1", "measurement kind": "EC50", "result": "< 250 nM"}
{"compound": "CN1CCC(CNc2nn3c(-c4cccc(OC(F)(F)F)c4)nnc3c3c2CCCC3)CC1", "measurement kind": "EC50", "result": "1000 to 10000 nM"}
{"compound": "CN1CCC(CNc2nn3c(-c4cccc(N(C)C)c4)nnc3c3c2N(C)CCO3)CC1", "measurement kind": "EC50", "result": "1000 to 10000 nM"}

###

- experimental target: PIM-1 (Homo sapiens (Human))
- assay summary: PIM-1 biochemical assay (ADP Hunter)
- stated conditions: read-out: PIM1 IC50; semi-quantitative

{"chemical structure": "CC(C)NCC1CCN(c2nn3c(-c4cccc(OC(F)(F)F)c4)nnc3c3c2N(C)CCO3)CC1", "experimental target": "PIM-1 (Homo sapiens (Human))", "IC50": "< 100 nM"}
{"chemical structure": "CN1CCOc2c1c(N1CCCC3(CCNCC3)C1)nn1c(-c3cccc(OC(F)(F)F)c3)nnc21", "experimental target": "PIM-1 (Homo sapiens (Human))", "IC50": "< 100 nM"}
{"chemical structure": "CN1CCOc2c1c(NC1CCOCC1)nn1c(-c3cccc(OC(F)(F)F)c3)nnc21", "experimental target": "PIM-1 (Homo sapiens (Human))", "IC50": "< 100 nM"}

###

- experimental target: PIM-2 (Homo sapiens (Human), UniProt Q9P1W9)
- Sequence (Q9P1W9 whole entry): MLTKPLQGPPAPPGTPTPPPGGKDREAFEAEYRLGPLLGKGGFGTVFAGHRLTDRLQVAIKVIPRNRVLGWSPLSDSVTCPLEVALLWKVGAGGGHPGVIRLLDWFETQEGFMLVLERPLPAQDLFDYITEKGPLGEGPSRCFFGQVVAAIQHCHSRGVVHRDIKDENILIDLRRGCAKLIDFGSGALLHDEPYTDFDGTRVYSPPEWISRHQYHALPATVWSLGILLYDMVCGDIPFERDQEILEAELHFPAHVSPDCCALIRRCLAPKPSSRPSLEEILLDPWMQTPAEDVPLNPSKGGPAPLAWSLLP
measurement kind: IC50

{"compound": "CNC1CCN(c2nn3c(-c4cccc(OC(F)(F)F)c4)nnc3c3c2N(C)CCO3)CC1 [Example 62]", "result": "100 to 1000 nM"}
{"compound": "CN1CCC(CNc2nn3c(-c4cccc(C#N)c4)nnc3c3c2N(C)CCO3)CC1 [Example 31]", "result": "> 1000 nM"}
{"compound": "CN1CCOc2c1c(NCC1CC1)nn1c(-c3cccc(OC(F)(F)F)c3)nnc21 [Example 7]", "result": "100 to 1000 nM"}
{"compound": "CN1CCOc2c1c(N1CC3(CCCNC3)C1)nn1c(-c3cccc(OC(F)(F)F)c3)nnc21 [Example 69]", "result": "100 to 1000 nM"}
{"compound": "CN1CCOc2c1c(NCC1CC[N+](C)([O-])CC1)nn1c(-c3cccc(OC(F)(F)F)c3)nnc21 (centres unmarked) [Example 103]", "result": "> 1000 nM"}
{"compound": "COc1ccc(-c2nnc3c4c(c(NCC5CCN(C)CC5)nn23)N(C)CCO4)cc1 [Example 1]", "result": "> 1000 nM"}
{"compound": "CN1CCOc2c1c(NCc1ccc(F)cc1)nn1c(-c3cccc(OC(F)(F)F)c3)nnc21 [Example 9]", "result": "> 1000 nM"}
{"compound": "CN1CCC(CNc2nn3c(-c4cccc(OC(F)(F)F)c4)nnc3c3c2OCCO3)CC1 [Example 41]", "result": "100 to 1000 nM"}
{"compound": "CN1CCOc2c(NCC3CCNCC3)nn3c(-c4cccc(OC(F)(F)F)c4)nnc3c21 [Example 58]", "result": "> 1000 nM"}
{"compound": "CN1CCC(CNc2nn3c(-c4ccc(F)cc4)nnc3c3c2N(C)CCO3)CC1 [Example 100]", "result": "> 1000 nM"}
{"compound": "CC(C)NCC1CCN(c2nn3c(-c4cccc(OC(F)(F)F)c4)nnc3c3c2N(C)CCO3)CC1 [Example 85]", "result": "100 to 1000 nM"}
{"compound": "CN1CCOc2c1c(N(C)C1CCOCC1)nn1c(-c3cccc(OC(F)(F)F)c3)nnc21 [Example 97]", "result": "100 to 1000 nM"}
{"compound": "CN1CCOc2c1c(N1CCC(N(C)C)CC1)nn1c(-c3cccc(OC(F)(F)F)c3)nnc21 [Example 5]", "result": "100 to 1000 nM"}
{"compound": "CN1CCOc2c1c(N1CCCC3(CCCN3C)CC1)nn1c(-c3cccc(OC(F)(F)F)c3)nnc21 (centres unmarked) [Example 61]", "result": "100 to 1000 nM"}
{"compound": "CN1CCC(CNc2nn3c(-c4cccc(N(C)C)c4)nnc3c3c2N(C)CCO3)CC1 [Example 34]", "result": "> 1000 nM"}
{"compound": "CN1CCOc2c1c(NCCN1CCOCC1)nn1c(-c3cccc(OC(F)(F)F)c3)nnc21 [Example 29]", "result": "100 to 1000 nM"}
{"compound": "CN1CCN(C)c2c1c(NCc1ccc(F)cc1)nn1c(-c3ccc(O)cc3)nnc21 [Example 94]", "result": "> 1000 nM"}

###

- experimental target: PIM-1 (Homo sapiens (Human), UniProt P11309)
- Sequence (P11309 whole entry): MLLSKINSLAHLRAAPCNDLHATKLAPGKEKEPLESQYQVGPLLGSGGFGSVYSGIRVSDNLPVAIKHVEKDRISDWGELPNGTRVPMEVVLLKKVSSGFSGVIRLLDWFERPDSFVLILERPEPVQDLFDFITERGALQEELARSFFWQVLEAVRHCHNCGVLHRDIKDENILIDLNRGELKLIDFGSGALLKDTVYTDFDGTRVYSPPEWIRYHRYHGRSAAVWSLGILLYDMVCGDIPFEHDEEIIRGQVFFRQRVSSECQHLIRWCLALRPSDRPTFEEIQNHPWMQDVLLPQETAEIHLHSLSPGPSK
- assay summary: PIM-1 biochemical assay (ADP Hunter)
- stated conditions: read-out: PIM1 IC50
pIC50: −log10 of the molar value.
Quick reference: pIC50 of the listed items.
measurement kind: pIC50

{"compound": "CN1CCC(CNc2nn3c(-c4ccc(F)cc4)nnc3c3c2N(C)CCO3)CC1 [Example 100]", "measured number": 6.74}
{"compound": "CCN1CCOc2c(NC3CCOCC3)nn3c(-c4cccc(OC(F)(F)F)c4)nnc3c21 [Example 14]", "measured number": 6.23}
{"compound": "CN1CCOc2c(NCCCO)nn3c(-c4cccc(OC(F)(F)F)c4)nnc3c21 [Example 22]", "measured number": 6.17}
{"compound": "COc1ccc(-c2nnc3c4c(c(NCCN5CCOCC5)nn23)N(C)CCO4)cc1 [Example 4]", "measured number": 6.09}
{"compound": "CN1CCOc2c1c(NCc1ccc(F)cc1)nn1c(-c3cccc(OC(F)(F)F)c3)nnc21 [Example 9]", "measured number": 7.28}
{"compound": "CN1CCOc2c1c(NCC1CC1)nn1c(-c3cccc(OC(F)(F)F)c3)nnc21 [Example 7]", "measured number": 7.60}
{"compound": "COc1ccc(-c2nnc3c4c(c(NCc5ccc(F)cc5)nn23)N(C)CCN4C)cc1 [Example 15]", "measured number": 5.36}
